target: Human COX II (Homo sapiens, UniProt P35354); experiment: Evaluation of COX II activity in vitro (recombinant enzyme, PGE2 ELISA); details: 10 μM arachidonic acid, pre-incubation 10-20 minutes, pH 8.0; read-out: Human COX II ID50
Sequence (P35354 18-604): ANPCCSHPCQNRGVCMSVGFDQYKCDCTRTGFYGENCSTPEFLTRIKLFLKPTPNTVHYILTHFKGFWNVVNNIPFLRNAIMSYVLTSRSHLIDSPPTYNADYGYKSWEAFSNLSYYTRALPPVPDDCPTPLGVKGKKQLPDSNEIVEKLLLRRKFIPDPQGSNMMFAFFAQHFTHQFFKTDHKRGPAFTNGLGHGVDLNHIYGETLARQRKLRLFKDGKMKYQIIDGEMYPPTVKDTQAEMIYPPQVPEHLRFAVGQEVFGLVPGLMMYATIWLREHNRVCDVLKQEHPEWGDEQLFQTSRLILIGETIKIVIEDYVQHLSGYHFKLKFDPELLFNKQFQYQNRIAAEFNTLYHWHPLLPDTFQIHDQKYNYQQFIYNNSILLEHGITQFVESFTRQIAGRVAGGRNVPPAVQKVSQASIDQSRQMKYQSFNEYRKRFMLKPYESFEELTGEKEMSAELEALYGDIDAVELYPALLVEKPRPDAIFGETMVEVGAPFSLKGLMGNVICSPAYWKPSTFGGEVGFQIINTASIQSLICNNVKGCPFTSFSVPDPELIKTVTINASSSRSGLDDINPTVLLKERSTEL
In this section we review reported IC50 values for a set of compounds.
Supply the numeric figure in nM, leaving out any unit text.

NS(=O)(=O)c1ccc(-n2nc(C(F)(F)F)c3oc4ccccc4c32)cc1
23500
NC(=O)c1nn(-c2ccc(S(N)(=O)=O)cc2)c2c1SCc1cc(F)ccc1-2
4700
COc1cc2c(cc1OC)-c1c(c(C(F)(F)F)nn1-c1ccc(S(N)(=O)=O)cc1)CS2
95000
COC(=O)c1nn(-c2ccc(S(N)(=O)=O)cc2)c2c1SCc1cc(F)ccc1-2
800
NS(=O)(=O)c1ccc(-n2nc(C(F)(F)F)c3c2-c2cc(F)ccc2OC3)cc1
4800

Turning now to a further record.
For the compound shown here, N#Cc1nn(-c2ccc(S(N)(=O)=O)cc2)c2c1CSc1ccccc1-2 , give the reported IC50.
3500

FYI, the data here is from patent US5547975A.
